Biological target: T1, Human CD19-his protein (human, UniProt P15391 20-291)
T1 construct: bought protein; also called recombinant human CD19-His; CD19 full-length protein; not shown: His tag
T1 sequence (looked up): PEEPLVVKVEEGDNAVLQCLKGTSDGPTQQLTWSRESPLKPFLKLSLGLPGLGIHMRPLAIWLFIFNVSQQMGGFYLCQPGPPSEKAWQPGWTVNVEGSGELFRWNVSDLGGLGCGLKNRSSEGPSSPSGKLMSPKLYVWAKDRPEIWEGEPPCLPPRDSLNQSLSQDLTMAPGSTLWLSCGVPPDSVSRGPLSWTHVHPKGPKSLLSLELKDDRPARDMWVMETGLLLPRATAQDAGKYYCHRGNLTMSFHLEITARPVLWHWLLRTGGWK
Assay: SPR Biacore, Ab captured on Protein A, CD19-His analyte
Collected koff values appear next to each entry.
Answer format: numeric, s⁻¹ implied, no suffix.

Worked cases, answers included:
binder="F4.82.11 (antibody, human IgG1, V domains shown, human-murine chimeric antibody, human IgG1 constant) VH: QVTLKESGPGILQASQTLSLTCSFSGFSLSTFGIGVGWVRQPSGKGLEWLAHIWWNDNKFFNTTLKNRLTLSKDPSNNQVFLKIASVDTADTATYYCARSRSALITTGLYAMDYWGQGTSVTVSS VL: DIQMTQTPSSLSASLGDRVTISCRSSQDISNYVNWYQQKPDGTVKVLINYTSRLHSGVPSRFSGSGSGTDYSLTISNLEQEDIASYFCQQGFTLPYTFGGGTKLEIK" numeric_readout=0.000774
binder="F4.15.9 (antibody, human IgG1, V domains shown, human-murine chimeric antibody, human IgG1 constant) VH: QVQLQQSGPELVKPGASVKISCKASGYAFSSSWMNWLKQRPGQGLEWIGRIYPGDGDTNYNGKFKGKATLTADESSSTAYMQLSSLTSVDSAVYFCARGITTIITIAWFASWGQGTLVTVSA VL: QIVLSQSPTILSASPGEKVTMTCRASSSVSYMHWYQQKPGSSPKPWIYATSNLASGVPPRFSGSGSGTSYSLTISRVGAEDAATYYCQQWSSDPWTFGGGTKLEIK" numeric_readout=0.000949

Field koff (entry F3.64.4 (antibody, human IgG1, V domains shown, human-murine chimeric antibody, human IgG1 constant) VH: EVQLQQSGPELVKPGASVKISCKASGYTFTDYHINWVKQSHGKSPEWIGDINPNNGGTTYNQKFKDKATLTVDKSSSTAFMELRSLTSEDSAVYYCARFITTVVAWYFDVWGTGTTVTVSS VL: DIQMTQSPASLSVSVGETVTITCRASENIYSNLAWYQQKQGKSPQLLVYAATNLADGVPSRFSGSGSGTQYSLKINSLQSEDFGNYYCQRFWDTPRTFGGGTKLEIK ) reads 0.000313
